Data provenance is PubChem BioAssay (NCI).

# Procedure Summary: NCI Yeast Anticancer Drug Screen. Data for the mec2-1 strain (AID 157)
# Assay Context: S. cerevisiae mec2-1 strain, at 50.0 µM, active compounds read high
This is part of a sample that, as a whole, favours compounds with a hit. Of some 79,000 tested, about 15% had one in any assay.
Listed here are molecules together with their documented growth inhibition.
Test Readout: growth inhibition (%)

• CCOC(=O)c1ccc(NC(=O)/C=C/c2ccccc2)cc1 = 11.4
• CCCCCCCCCCCCCCCC(=O)NOCc1cscn1 = -29.1
• BrCCCCCCCCCBr = -3.35
• N/N=C1\C(Cl)=C(Cl)c2ccccc21 = -6.35
• O=[N+]([O-])c1ccc(N/N=C/c2ccccn2)nc1 = -6.1
• CSc1nc(NC2OCC(OC(C)=O)C(OC(C)=O)C2OC(C)=O)c(N=CC=Nc2c(NC3OCC(OC(C)=O)C(OC(C)=O)C3OC(C)=O)nc(SC)n(C)c2=O)c(=O)n1C (configuration not stated) = -4.85
• O=C(SCc1ccccc1)N(c1ccccc1)c1ccccc1 = 11.9
• CCC(COC(=O)CC[C@@H](NC(=O)C(C)NC(=O)C(C)OC1C(O)C(CO)OC(OCc2ccccc2)C1NC(C)=O)C(N)=O)NC1c2ccccc2Nc2cccc([N+](=O)[O-])c21 (some centres not stated) = -9.7
• O=C(OC1CCC(c2ccccc2)C1)c1cc([N+](=O)[O-])cc([N+](=O)[O-])c1 (configuration not stated) = 25.9
• COc1ccc(C(=O)N2CCOCC2)cc1 = -16.6
• CNc1ccn(C2OC(CO)C(O)C2SC(C)(C)C)c(=O)n1 (configuration not stated) = 0.25
• CCCCCCCCCCCC(=O)OCC1OC(n2cc(F)c(=O)[nH]c2=O)C(N)C(OC(=O)CCCCCCCCCCC)C1O (configuration not stated) = -34.9
• COc1c(NC(=O)c2ccc(C(=O)Nc3cccc([N+](=O)[O-])c3OC)cc2)cccc1[N+](=O)[O-] = -6.1
• O=c1cc[nH]c2cc(C(F)(F)F)ccc12 = -39
• CCCC(=O)Oc1ccc(C)cc1C(C)(C)C = -22.2
• Cc1ccc(S(=O)(=O)n2cncc2CO)cc1 = -26.8
• COc1ccc(/C=N/Nc2nc(C)c(C)s2)cc1 = 18.4
• O=C(NCCO)C(=O)NCCO = -13.3
• O=C(O)CCc1c(-c2ccccc2)c(-c2ccccc2)c2n1CCC2 = 41
• O=c1cc(CNC2CC3CCC2C3)[nH]c(=O)[nH]1 (configuration not stated) = -1.2
• Cc1cc(C)c(-c2no/c(=N\S(=O)(=O)c3ccc(Cl)cc3)o2)c(C)c1 = -4.1
• Cc1ccc(F)cc1S(N)(=O)=O = -9.65
